assay: collision cross section (TIMS, N2 drift gas) of the primary ion; higher = larger gas-phase ion size; conditions: ionization mode: ESI-; ion species: [M-H]-
measured attribute: collision cross section (Å²)

• O=S(=O)(c1ccc(O)cc1)c1ccc(O)cc1 [Bisphenol S] = 154.29
• Oc1c(Cl)c(Cl)c(Cl)c(Cl)c1Cl [Pentachlorophenol] = 137.44
• CCOC(=O)[C@H](CCc1ccccc1)N[C@@H](C)C(=O)N1CCC[C@H]1C(=O)O [Enalapril] = 193.85
• O=C(NC(CO)C(O)c1ccc([N+](=O)[O-])cc1)C(Cl)Cl (configuration not stated) [Chloramphenicol] = 165.75
• Oc1cccc2ccccc12 [1-Naphthol] = 124.62
• Oc1ccc(C2(c3ccc(O)cc3)CCCCC2)cc1 [Bisphenol Z] = 173.12
• CC(=O)OCC(=O)[C@@]1(O)CC[C@H]2[C@@H]3CCC4=CC(=O)CC[C@]4(C)[C@H]3[C@@H](O)C[C@@]21C [Hydrocortisonacetate] = 198.1
• O=S(=O)(O)c1cccc2ccc(O)cc12 [2-Naphthol-8-sulfonic acid] = 144.25
• Nc1ccc(S(=O)(=O)Nc2nccs2)cc1 [Sulfathiazole] = 152.72
• CCC[C@@H]1C[C@@H](C(=O)N[C@@H]([C@H]2O[C@H](SC)[C@H](O)[C@@H](O)[C@H]2O)[C@@H](C)O)N(C)C1 [Lincomycin] = 197.99
• O=C1Nc2ccc(Cl)cc2C(C#CC2CC2)(C(F)(F)F)O1 (configuration not stated) [Efavirenz] = 167.59
• Clc1cccc(Cl)c1NC1=NCCN1 [Clonidine] = 145.07
• CC1OC(OCC2OC(Oc3c(-c4ccc(O)c(O)c4)oc4cc(O)cc(O)c4c3=O)C(O)C(O)C2O)C(O)C(O)C1O (configuration not stated) [Rutin] = 232.48
• O=C(CC(C(=O)OC1CCCCC1)S(=O)(=O)O)OC1CCCCC1 (configuration not stated) [Dicyclohexyl sulfosuccinate] = 189.02
• Clc1ccc2n[nH]nc2c1 [5-Chlorobenzotriazole] = 120.9
• COc1cc(C2c3cc4c(cc3C(OC3OC5COC(C)OC5C(O)C3O)C3COC(=O)C23)OCO4)cc(OC)c1O (configuration not stated) [Etoposide_2] = 241.7
• O=C(Nc1ccc(F)cc1F)c1cccnc1Oc1cccc(C(F)(F)F)c1 [Diflufenican] = 181.03

====

Consider the following molecules and their measured reversed-phase LC retention time readings.
assay: reversed-phase LC retention time (C18, 15 min MeOH gradient); higher = more hydrophobic / later elution; conditions: ionization mode: ESI+; ion species: [M+H]+
measured attribute: reversed-phase LC retention time (min)

* CCCC(Cn1cncn1)c1ccc(Cl)cc1Cl (stereo not given) | 15.5
* CNCCC(Oc1cccc2ccccc12)c1cccs1 (stereo not given) | 13
* Cc1c(N)c(=O)n(-c2ccccc2)n1C [4-Aminoantipyrine] | 7.19
* NC(=O)N1c2ccccc2C=Cc2cc(O)ccc21 [2-Hydroxycarbamazepine] | 10.3
* COc1ccc2c(c1)c(CC(=O)O)c(C)n2C(=O)c1ccc(Cl)cc1 | 15.3

====

assay: collision cross section (TIMS, N2 drift gas) of the primary ion; higher = larger gas-phase ion size; details: ionization mode: ESI+; ion species: [M+H]+
measured attribute: collision cross section (Å²)

- Cc1cnc2c(C(=O)O)c(Cl)ccc2c1: 139.87
- Cc1ccc(NC(=O)N(C)C)cc1Cl: 147.58
- Cc1cc(-c2ccc(N)c(C)c2)ccc1N: 165.69
- CCCCOCCOP(=O)(OCCOCCCC)OCCOCCCC [Tri(butoxyethyl)phosphate]: 198.12
- CCOCCN(C(=O)CCl)C(=C(C)C)c1ccccc1: 166.72
- Nc1ccc(Cl)cc1: 114.68
- CC(Cc1ccc(C(C)(C)C(=O)O)cc1)CN1CC(C)OC(C)C1 (stereo unspecified): 177.46
- CCC(Cc1ccccc1)(C(=O)c1ccc(N2CCOCC2)cc1)N(C)C (stereo unspecified): 196.72
- CCCCc1c(C)nc(NCC)nc1OS(=O)(=O)N(C)C [Bupirimate]: 176.08
- CC(=O)[C@@]1(O)CC[C@H]2[C@@H]3C=C(Cl)C4=CC(=O)[C@@H]5C[C@@H]5[C@]4(C)[C@H]3CC[C@@]21C: 190.49
- CC[C@H]1OC(=O)C[C@@H](O)[C@H](C)[C@@H](O[C@@H]2O[C@H](C)[C@@H](O[C@H]3C[C@@](C)(O)[C@@H](O)[C@H](C)O3)[C@H](N(C)C)[C@H]2O)[C@@H](CC=O)C[C@@H](C)C(=O)/C=C/C(C)=C/[C@@H]1CO[C@@H]1O[C@H](C)[C@@H](O)[C@@H](OC)[C@H]1OC: 282.55
- CCOC(=O)[C@H](CCc1ccccc1)N[C@@H](C)C(=O)N1CCC[C@H]1C(=O)O: 187.31
- O=c1cc(-c2ccc(O)cc2)oc2cc(O[C@@H]3O[C@H](CO)[C@@H](O)[C@H](O)[C@H]3O[C@@H]3OC[C@](O)(CO)[C@H]3O)cc(O)c12: 232.7
- CCC(=NOC/C=C/Cl)C1=C(O)CC(C2CCOCC2)CC1=O (stereo unspecified) [Tepraloxydim (two peaks)]: 186.68
- OC(Cn1cncn1)(c1ccc(F)cc1)c1ccccc1F (stereo unspecified): 167.74
- CC#Cc1cc(C)nc(Nc2ccccc2)n1: 152.51
